Target: T1, human C type Lectin Like molecule 1 (CLL-1) on cells (human, UniProt Q5QGZ9 1-265)
T1 sequence: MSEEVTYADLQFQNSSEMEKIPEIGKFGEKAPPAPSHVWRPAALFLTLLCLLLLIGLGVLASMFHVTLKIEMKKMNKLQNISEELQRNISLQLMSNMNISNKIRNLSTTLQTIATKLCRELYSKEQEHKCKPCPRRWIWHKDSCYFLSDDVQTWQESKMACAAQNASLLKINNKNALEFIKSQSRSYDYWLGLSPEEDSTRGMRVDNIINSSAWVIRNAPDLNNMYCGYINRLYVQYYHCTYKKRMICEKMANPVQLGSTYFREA
Assay: cell-based or functional assay
ASSAY_ENDPOINT: ADC EC50 (pM), saporin-conjugated antibody, cell viability
Give just the number in pM; leave the unit off.

Solved cases below.
>>> experimental_value("CLL-1 antibody clone M5 (antibody, IgG2a, V domains shown) VH: EVQLQQSGAELVRPGASVKLSCTASGFNIKDDYIHWVKQRPEQGLEWIGWIDPEKGDTAYASKFQDKATITSDTSSNTAYLQLSSLTSEDTAVYYCTLTGRFDYWGQGTTLTVSS VL: DIVMSQSPSSLAVSVGEKVTMSCKSSQSLLYSSNQKNNLAWYQQKPGQSPKLLIYWASTRESGVPDRFTGSGSGTDFTLTISSVQAEDLAVYYCQQYYSYRTFGGGTKLEIK")
150
>>> experimental_value("CLL-1 antibody clone M31 (antibody, IgG2a, V domains shown) VH: EVQLQQSGPELVKPGASVKMSCKASGYTFTSYVMHWVKQKPGQGLEWIGYINPYNDGTKYNEKFKGKATLTSDTSSSTAYMELNSLTSEDSAVYFCARPIYFDNDYFDYWGQGTTLKVSS VL: TIVLTQSPASLAVSLGQRATISCRASESVDSYGNSFMHWYQQKPGQPPKLLIYLASNLESGVPARFSGSGSRTDFTLTIDPVEADDAATYYCQQNNYDPWTFGGGTKLEIK")
34.3
>>> experimental_value("CLL-1 antibody clone G4 (antibody, IgG1, V domains shown, also called 31.G4; 31G4) VH: EVQLQQSGPELVKPGASMKISCKASGYSFTGYTMNWVKQSHEKNLEWIGPINPYNDGTIYNPNFKGKATLTVDKASSTAYMELLSLTSDDPAVYYCARTDDYDDYTMDYWGQGTSVTVSS VL: EIQMTQTPSSLSASLGDRVTISCRASHDISNYLNWYQQKPDGTLKLLIYYTSRLHSGVPSRFSGSGSGTDYSLTISNLEQEDIATYFCQQGKTLLWTFGGGTKLEIK")
44.4
>>> experimental_value("CLL-1 antibody clone G12 (antibody, IgG1, V domains shown) VH: QVQLQQPGAELVKPGASMKMSCKASGYTFPSSNIHWLKQTPGQGLEWIGVIYPGNGDTSYNQKFKDKATLTTDKSSSTAYMQLSSLTSEDSAIYFCARVYNWHFDVWGAGTTVTVSS VL: NIVLTQSPASLAVSLGQRATISCRASESVDGYGDIFMLWYQQKPGQPPKLLIYFASNLESGVPARFSGSGSRTDFTLTIDPVEADDAATYYCQQNNEDPYTFGGGTKLEIKR")
19.4
>>> experimental_value("CLL-1 antibody clone M2 (antibody, IgG1, V domains shown) VH: EVQLRQSGPELVKPGASVKMSCKASGYTFTSYFMHWVKQKPGQGLEWIGFINPYNDGTKYNEKFKGKATLTSDKSSSTAYMELNSLTSEDSAVYYCTRDDGYYDYAMDYWGQGTSVTVSS VL: DIQMTQSPSSLSASLGERVSLTCRASQEISVYLSWLQQKPDGTIKRLIYAASTLDSGVPERFSGSRSGSDYSLTISSLESEDFADYYCLQYASYPYTFGGGTKLEIKR")
20.9

// returns reported ADC EC50 (pM), saporin-conjugated antibody, cell viability for input CLL-1 antibody clone M29 (antibody, IgG1, V domains shown) VH: EVQLQQSGPELVKPGASVKMSCKASGYIFTSYVMYWVKQKPGQGLEWIGYINPYNDGTKYNEKFKGKATLTSDKSSSTAYMELSSLTSEDSAVYYCARYYDYDYYFDYWGQGTTLTVSS VL: DIQMTQSPSSLSASLGGKVTITCKASQDINKYIAWYQHKPGKGPRLLIHYTSTLQPGIPSRFSGSGSGRDYSFSISNLEPEDIATYYCLQYDYLWTFGGGTKLEIK 91.4

If you can, please state the reported ADC EC50 (pM), saporin-conjugated antibody, cell viability value of CLL-1 antibody clone M26 (antibody, V domains shown, Conjugated to saporin in the ADC assays) VH: EVQLQQSGPELVKPGASVKMSCKASGYTFTSYFIHWVKQKPGQGLEWIGFINPYNDGSKYNEKFKGKATLTSDKSSSTAYMELSSLTSEDSAVYYCTRDDGYYGYAMDYWGQGTSVTVSS VL: DIQMTQSPSSLSASLGERVSLTCRATQELSGYLSWLQQKPDGTIKRLIYAASTLDSGVPKRFSGNRSGSDYSLTISSLESEDFADYYCLQYAIYPYTFGGGTKLEIKR . 90.2
